Data provenance is ChEMBL document CHEMBL4385668.

Tested on: NHDF
experimental details: Cytotoxicity in human NHDF cells assessed as reduction in cell viability incubated for 72 hrs by SRB assay
Assay type: cell-based
measured attribute: pIC50
Give bare numbers, as −log10 of the molar value.

| molecule | tested on | pIC50 |
| --- | --- | --- |
| O=c1[nH]c(=O)n([C@H]2C[C@H](O)[C@@H](CO)O2)cc1F | NHDF | 4.88 |
| CC(C)(C)OC(=O)O[C@H]1C[C@H](n2cc(F)c(=O)[nH]c2=O)O[C@@H]1Cn1cc(CNc2ccn([C@@H]3O[C@H](CO)[C@@H](O)C3(F)F)c(=O)n2)nn1 | NHDF | 4.86 |

Now, please, on to the next compound.
Per the records, this compound ( Cc1cn([C@H]2C[C@H](OC(=O)OC(C)(C)C)[C@@H](Cn3cc(COC(=O)Nc4ccn([C@@H]5O[C@H](CO)[C@@H](O)C5(F)F)c(=O)n4)nn3)O2)c(=O)[nH]c1=O ) has pIC50 equal to 4.82
